Form field: inhibition (one value per entry).
- system: Receptor-type tyrosine-protein kinase FLT3 (Homo sapiens);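 further: values are mean percent inhibition of FLT3 kinase activity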
- measurement_setup: at 1 µM
Please respond with the number in % and leave the unit unwritten.

- item_smiles: "COc1cc2c(cc1Nc1nc(Nc3ccsc3C(N)=O)c3cc[nH]c3n1)N(C(=O)CN(C)C)CCC2"
  inhibition [%]: 1.45
- item_smiles: "COc1cccc(-n2ncc3c(N/N=C/c4ccncc4)ncnc32)c1"
  inhibition [%]: 28.3
- item_smiles: "COc1cccc(COc2cc(-n3cnc4ccccc43)sc2C(N)=O)c1"
  inhibition [%]: -4.17
- item_smiles: "Nc1nonc1-c1nc2cnccc2n1C1CCCCC1"
  inhibition [%]: 4.32
- item_smiles: "NS(=O)(=O)c1ccc(-c2ccc3c(NC(=O)C4CC4)n[nH]c3c2)cc1"
  inhibition [%]: 3.53

# get_value(readout= inhibition, system= Receptor-type tyrosine-protein kinase FLT3 (Homo sapiens)) for CCn1c(-c2nonc2N)nc2c(C#CC(C)(C)O)ncc(OCC3CCNCC3)c21 4.4

Reference source for all entries: ChEMBL document CHEMBL1961873
